molecular target: T1, HLA-A*02:01 (human); assay: UV peptide exchange ELISA
T1 construct: monomers captured on streptavidin plates; also called MHC class I
Measured peptide exchange yield, listed per entry for reference.

binder | peptide exchange yield
ILVGGGALATV | 50 to 75%
FLVTLNNVEV | ≥ 75%
YLIPFTGIVGL | 20 to 50%
SLMPHIPGL | 50 to 75%
